These measurements were taken from patent US20250243196A1.

biological target: ROCK-1 (Homo sapiens (Human), UniProt Q13464)
Sequence (Q13464 whole entry): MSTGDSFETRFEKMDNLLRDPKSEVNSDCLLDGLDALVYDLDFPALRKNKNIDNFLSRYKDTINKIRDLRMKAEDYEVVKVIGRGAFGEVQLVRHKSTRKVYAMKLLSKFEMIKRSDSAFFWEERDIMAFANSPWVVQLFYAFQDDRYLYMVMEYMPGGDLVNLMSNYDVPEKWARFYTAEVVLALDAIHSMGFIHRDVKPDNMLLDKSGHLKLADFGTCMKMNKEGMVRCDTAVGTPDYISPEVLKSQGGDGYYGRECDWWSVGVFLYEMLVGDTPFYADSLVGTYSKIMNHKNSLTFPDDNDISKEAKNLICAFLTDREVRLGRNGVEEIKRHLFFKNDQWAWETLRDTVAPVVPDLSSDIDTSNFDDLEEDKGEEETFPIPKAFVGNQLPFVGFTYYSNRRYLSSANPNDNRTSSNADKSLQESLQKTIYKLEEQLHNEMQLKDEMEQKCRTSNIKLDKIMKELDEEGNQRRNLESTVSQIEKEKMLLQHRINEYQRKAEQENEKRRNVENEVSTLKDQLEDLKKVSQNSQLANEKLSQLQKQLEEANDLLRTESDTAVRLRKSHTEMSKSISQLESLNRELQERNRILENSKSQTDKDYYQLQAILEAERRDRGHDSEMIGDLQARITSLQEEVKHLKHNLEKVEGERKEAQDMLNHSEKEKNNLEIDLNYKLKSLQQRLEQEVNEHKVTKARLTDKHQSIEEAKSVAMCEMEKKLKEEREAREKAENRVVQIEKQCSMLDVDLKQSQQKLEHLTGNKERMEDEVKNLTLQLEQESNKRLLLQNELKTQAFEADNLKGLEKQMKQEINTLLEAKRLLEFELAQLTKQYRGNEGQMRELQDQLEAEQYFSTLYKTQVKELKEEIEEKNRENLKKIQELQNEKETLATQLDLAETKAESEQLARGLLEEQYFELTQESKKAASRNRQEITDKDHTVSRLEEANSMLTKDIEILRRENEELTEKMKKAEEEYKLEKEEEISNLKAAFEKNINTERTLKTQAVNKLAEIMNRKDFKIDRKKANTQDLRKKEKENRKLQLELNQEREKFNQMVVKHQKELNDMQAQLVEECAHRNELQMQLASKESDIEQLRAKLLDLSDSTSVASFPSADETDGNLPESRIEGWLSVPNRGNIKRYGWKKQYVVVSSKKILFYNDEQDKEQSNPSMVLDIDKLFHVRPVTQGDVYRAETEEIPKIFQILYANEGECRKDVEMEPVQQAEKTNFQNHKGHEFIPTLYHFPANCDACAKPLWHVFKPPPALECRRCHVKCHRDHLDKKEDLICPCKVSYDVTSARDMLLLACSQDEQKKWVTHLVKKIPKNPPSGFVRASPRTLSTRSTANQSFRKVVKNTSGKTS
IC50 for assorted compounds

CC(C)C[C@@H](N)C(=O)Nc1ccc(-c2ccnc3[nH]ccc23)cc1 [Compound F-9]: 0.23 µM

Please turn your attention to the following entry.
Consider the compound shown here: N[C@H](Cc1ccccc1)C(=O)Nc1ccc(-c2ccnc3[nH]ccc23)cc1 [Compound F-33] What is its recorded IC50?
0.107 µM

----------
Recorded measurements of pIC50, one per entry
biological target: Citron kinase (Homo sapiens (Human)); assay: Radiometric citron kinase assay (Eurofins Cat #16-040KP); format: biochemical; settings: mean of at least two independent assays; read-out: Radiometric CitK IC50
Entry type: numeric. Quantity: pIC50, the -log10 of concentration in molar units.

Below: 7 compounds and their reported pIC50.
CC(C)(C)[C@@H](N)C(=O)Nc1ccc(-c2ccnc3[nH]ccc23)c(F)c1: 7.24
Cc1cc(NC(=O)[C@H](N)C(C)(C)C)ccc1-c1ccnc2[nH]ccc12: 7.31
Cc1cc2c(-c3ccc(NC(=O)[C@H](N)CC(C)(C)C)nc3C)ccnc2[nH]1: 7.04
Cc1cc2c(-c3ccc(NC(=O)[C@H](N)Cc4ccccc4)cc3)ccnc2[nH]1: 6.38
Cc1cc2c(-c3csc(NC(=O)[C@@H](N)C(C)(C)C)n3)ccnc2[nH]1: 6.95
Cc1cc(NC(=O)[C@H](N)CC(C)C)ccc1-c1ccnc2[nH]c(C(F)(F)F)cc12: 7.52
CC(C)C[C@@H](N)C(=O)Nc1cccc(-c2ccnc3[nH]ccc23)c1: 6.61

// moving on: another record for pIC50
Entry under review: COc1cc(-c2ccnc3[nH]c(C)cc23)ncc1NC(=O)[C@H](N)CC(C)(C)C . Reported pIC50?
6.63

----------
molecular target: ROCK-2 (Homo sapiens (Human), UniProt O75116); test: KinaseProfiler radiometric assay (14-451KP); type: biochemical; details: mean of at least two independent experiments
Sequence (O75116 whole entry): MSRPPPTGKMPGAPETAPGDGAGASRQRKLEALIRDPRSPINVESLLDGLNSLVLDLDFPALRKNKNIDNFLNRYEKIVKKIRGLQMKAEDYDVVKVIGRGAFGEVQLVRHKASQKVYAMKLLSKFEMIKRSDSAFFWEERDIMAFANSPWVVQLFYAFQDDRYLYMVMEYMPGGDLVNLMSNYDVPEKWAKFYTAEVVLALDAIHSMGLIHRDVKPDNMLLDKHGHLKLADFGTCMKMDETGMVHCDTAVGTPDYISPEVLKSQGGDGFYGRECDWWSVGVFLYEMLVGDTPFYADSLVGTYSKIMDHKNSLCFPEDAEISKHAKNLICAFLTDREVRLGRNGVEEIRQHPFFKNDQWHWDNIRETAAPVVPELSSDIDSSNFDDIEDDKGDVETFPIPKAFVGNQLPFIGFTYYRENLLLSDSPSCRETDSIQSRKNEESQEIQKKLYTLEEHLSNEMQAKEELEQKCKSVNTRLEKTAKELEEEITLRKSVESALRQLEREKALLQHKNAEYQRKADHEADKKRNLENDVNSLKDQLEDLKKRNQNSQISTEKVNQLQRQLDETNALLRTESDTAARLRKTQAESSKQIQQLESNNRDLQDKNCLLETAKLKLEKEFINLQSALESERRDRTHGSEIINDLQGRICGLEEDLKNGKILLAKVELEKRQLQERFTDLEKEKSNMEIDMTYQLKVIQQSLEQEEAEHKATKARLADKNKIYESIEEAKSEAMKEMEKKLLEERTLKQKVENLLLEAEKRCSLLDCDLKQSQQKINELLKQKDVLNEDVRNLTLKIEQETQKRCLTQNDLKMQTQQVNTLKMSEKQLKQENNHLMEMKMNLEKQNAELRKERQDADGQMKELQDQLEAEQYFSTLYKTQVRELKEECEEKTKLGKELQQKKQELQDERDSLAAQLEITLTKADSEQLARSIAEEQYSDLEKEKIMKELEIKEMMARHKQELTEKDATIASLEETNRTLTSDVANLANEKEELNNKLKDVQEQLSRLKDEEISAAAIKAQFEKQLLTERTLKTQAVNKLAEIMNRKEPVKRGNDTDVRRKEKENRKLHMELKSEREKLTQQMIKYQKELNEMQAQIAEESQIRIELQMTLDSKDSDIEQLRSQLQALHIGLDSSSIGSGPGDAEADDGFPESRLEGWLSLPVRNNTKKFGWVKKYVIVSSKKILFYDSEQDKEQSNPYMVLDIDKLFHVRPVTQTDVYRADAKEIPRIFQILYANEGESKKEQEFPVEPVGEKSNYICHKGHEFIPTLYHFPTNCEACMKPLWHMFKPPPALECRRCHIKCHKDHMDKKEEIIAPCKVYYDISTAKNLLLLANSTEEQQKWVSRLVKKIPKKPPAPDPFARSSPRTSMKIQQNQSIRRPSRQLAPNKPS
Recorded measurements of pIC50, one per entry
Quick note: pIC50 values are minus log10 of concentrations in mol/L.

Worked cases, pIC50 given:
Cc1cc(NC(=O)[C@H](N)C(C)(C)C)ccc1-c1ccnc2[nH]ccc12: 6.26
CC(C)(C)[C@@H](N)C(=O)Nc1ccc(-c2ccnc3[nH]ccc23)cc1: 7.19

What value of pIC50 has been recorded for this entry: CC(C)C[C@@H](N)C(=O)Nc1ccc(-c2ccnc3[nH]ccc23)cc1
7.74

Then what about the molecule COc1cc(-c2ccnc3[nH]ccc23)ccc1NC(=O)[C@H](N)CC(C)C ?
7.92

----------
molecular target: Citron kinase (Homo sapiens (Human), UniProt O14578); assay: Radiometric citron kinase assay (Eurofins Cat #16-040KP); assay type: biochemical; details: mean of at least two independent assays; read-out: Radiometric CitK IC50
Sequence (O14578 whole entry): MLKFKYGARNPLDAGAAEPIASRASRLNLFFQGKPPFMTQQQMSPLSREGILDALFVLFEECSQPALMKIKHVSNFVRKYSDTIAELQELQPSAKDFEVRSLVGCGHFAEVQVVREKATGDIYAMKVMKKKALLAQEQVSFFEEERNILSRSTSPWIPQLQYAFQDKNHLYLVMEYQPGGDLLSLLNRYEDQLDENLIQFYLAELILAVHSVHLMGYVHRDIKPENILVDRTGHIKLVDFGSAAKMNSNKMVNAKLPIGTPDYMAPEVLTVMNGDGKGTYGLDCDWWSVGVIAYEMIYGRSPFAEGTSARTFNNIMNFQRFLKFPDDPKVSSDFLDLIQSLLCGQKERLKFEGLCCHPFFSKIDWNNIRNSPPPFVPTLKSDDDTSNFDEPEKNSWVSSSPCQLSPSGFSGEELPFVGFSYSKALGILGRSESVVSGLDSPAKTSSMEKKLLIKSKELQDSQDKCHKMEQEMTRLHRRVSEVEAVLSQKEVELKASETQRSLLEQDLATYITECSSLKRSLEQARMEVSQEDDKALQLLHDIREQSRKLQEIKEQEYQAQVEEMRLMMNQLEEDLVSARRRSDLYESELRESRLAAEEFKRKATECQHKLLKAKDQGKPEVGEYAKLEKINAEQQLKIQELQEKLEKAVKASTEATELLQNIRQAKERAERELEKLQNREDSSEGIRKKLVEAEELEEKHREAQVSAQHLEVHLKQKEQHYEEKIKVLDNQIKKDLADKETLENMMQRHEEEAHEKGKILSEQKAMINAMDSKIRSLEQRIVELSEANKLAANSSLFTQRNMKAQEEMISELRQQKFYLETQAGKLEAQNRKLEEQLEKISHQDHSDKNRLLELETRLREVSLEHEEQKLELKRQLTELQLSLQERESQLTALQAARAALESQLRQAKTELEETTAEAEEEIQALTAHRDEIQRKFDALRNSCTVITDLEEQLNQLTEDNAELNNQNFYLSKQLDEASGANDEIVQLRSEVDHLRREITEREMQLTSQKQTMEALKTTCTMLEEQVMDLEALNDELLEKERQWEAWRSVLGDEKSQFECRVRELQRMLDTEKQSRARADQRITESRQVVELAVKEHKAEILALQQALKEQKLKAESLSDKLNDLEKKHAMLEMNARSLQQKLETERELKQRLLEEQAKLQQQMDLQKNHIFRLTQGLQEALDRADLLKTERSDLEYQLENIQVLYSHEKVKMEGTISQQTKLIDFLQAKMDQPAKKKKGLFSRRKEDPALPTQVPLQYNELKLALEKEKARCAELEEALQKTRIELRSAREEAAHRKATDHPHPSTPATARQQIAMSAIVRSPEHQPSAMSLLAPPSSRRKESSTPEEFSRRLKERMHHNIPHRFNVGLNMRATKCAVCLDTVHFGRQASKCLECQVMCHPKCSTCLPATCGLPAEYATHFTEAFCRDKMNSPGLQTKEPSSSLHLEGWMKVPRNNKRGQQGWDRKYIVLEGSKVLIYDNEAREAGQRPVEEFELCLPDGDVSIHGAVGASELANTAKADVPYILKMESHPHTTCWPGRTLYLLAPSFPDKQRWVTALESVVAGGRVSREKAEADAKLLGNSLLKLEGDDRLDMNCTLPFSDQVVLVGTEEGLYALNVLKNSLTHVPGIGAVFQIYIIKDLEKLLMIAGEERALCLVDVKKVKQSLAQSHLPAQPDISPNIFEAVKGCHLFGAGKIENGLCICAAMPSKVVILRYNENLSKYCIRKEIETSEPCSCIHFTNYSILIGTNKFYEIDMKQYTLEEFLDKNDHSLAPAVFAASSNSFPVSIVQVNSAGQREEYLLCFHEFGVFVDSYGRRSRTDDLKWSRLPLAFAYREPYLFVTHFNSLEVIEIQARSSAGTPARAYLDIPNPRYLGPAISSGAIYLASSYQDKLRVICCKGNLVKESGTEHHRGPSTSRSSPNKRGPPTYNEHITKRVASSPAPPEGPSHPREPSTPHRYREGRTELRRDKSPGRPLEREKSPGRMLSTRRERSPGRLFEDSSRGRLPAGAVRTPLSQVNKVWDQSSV
READOUT KIND: IC50 (nM)
// units = nM; emit number, no label

Field: example entries. Status: answers known.
Cc1cc(NC(=O)[C@H](N)CC(C)(C)C)ccc1-c1ccnc2[nH]c(C(F)(F)F)cc12 [Compound F-99]: 103
CC(O)[C@@H](N)C(=O)Nc1ccc(-c2ccnc3[nH]ccc23)cc1 (stereo partly shown) [Compound F-30]: 218
Cc1cc(NC(=O)[C@H](N)Cc2ccccc2)ccc1-c1ccnc2[nH]ccc12 [Compound F-127]: 144
CC(C)(C)C[C@@H](N)C(=O)Nc1ccc(-c2ccnc3[nH]c(C(F)F)cc23)cc1 [Compound F-143]: 4
Cc1cc(-c2ccnc3[nH]ccc23)ccc1NC(=O)[C@H](N)Cc1ccccc1 [Compound F-132]: 237

# lookup: IC50 of Cc1cc(NC(=O)[C@H](N)C(C)(C)C)ccc1-c1ccnc2[nH]c(C(F)(F)F)cc12 [Compound F-100]
380

Then Cc1cc(NC(=O)[C@H](N)C(C)(C)C)cc(C)c1-c1ccnc2[nH]ccc12 [Compound F-138] ?
3000

Same question for Cc1cc2c(-c3ccc(NC(=O)[C@H](N)CC(C)(C)C)c(F)c3C)ccnc2[nH]1 [Compound F-156] please.
10

Please do the same for COc1nc(NC(=O)[C@H](N)CC(C)(C)C)ccc1-c1ccnc2[nH]c(C(F)(F)F)cc12 [Compound F-154] as well.
59

Now the same for C[C@H](N)C(=O)Nc1ccc(-c2ccnc3[nH]ccc23)cc1 [Compound F-4]
3000

Same question, N[C@@H](Cc1ccccc1)C(=O)Nc1ccc(-c2ccnc3[nH]ccc23)c(C(F)(F)F)c1 [Compound F-129] this time
3000

Note, next up: Cc1cc2c(-c3ccc(NC(=O)[C@@H](N)C(C)(C)C)cc3)ccnc2[nH]1 [Compound F-51]
366

----------
Recorded measurements of IC50, one per entry
molecular target: UniProtKB O14578; experiment: TR-FRET citron kinase assay (Eurofins Cat #2628); type: biochemical; details: mean of at least two independent assays; read-out: TR-FRET CitK IC50
Hey, just the number and the unit after it is fine.

// below: answered molecules
CC(C)C[C@H](N)C(=O)Nc1ccc(-c2ccnc3[nH]ccc23)cc1: 29.9 nM
NC(C(=O)Nc1ccc(-c2ccnc3[nH]ccc23)cc1)C1CC1 (stereo not shown): 120 nM
CC(C)C[C@@H](N)C(=O)Nc1ccc(-c2ccnc3[nH]ccc23)cc1: 4.9 nM

Consider the molecule shown here: Cc1c[nH]c2nccc(-c3ccc(NC(=O)C(N)Cc4ccccc4)cc3)c12 (stereo not shown) What is its recorded IC50?
392 nM

----------
IC50, PKAα (Homo sapiens (Human)), per-entry values.
I only need the number, in nM, no unit after it.

CC(C)C[C@@H](N)C(=O)Nc1ccc(-c2ccnc3[nH]ccc23)cc1: 7
COc1cc(-c2ccnc3[nH]ccc23)ccc1NC(=O)[C@H](N)CC(C)C: 26

Next, consider the following compound.
Requested read-out: IC50. Entry: Cc1cc(NC(=O)[C@H](N)CC(C)C)ccc1-c1ccnc2[nH]ccc12
82

----------
# reported pIC50; entries follow
molecular target: UniProtKB O14578; test: NanoBRET intracellular target engagement assay; conditions: HEK293T cells transfected with NanoLuc-CITK; Tracer K10 1 μM; 2 hours
# pIC50 is unitless: minus log10 of the molar concentration; print number only

Cc1cc2c(-c3ccc(NC(=O)[C@H](N)[C@@H](O)C(C)C)cc3C)ccnc2[nH]1: 8.00
Cc1cc2c(-c3ccc(NC(=O)[C@H](N)CC(C)(C)C)cc3C)ccnc2[nH]1: 7.28
Cc1cc2c(-c3ccc(NC(=O)[C@H](N)C(C)(C)O)cc3C)ccnc2[nH]1: 6.24

What value of pIC50 has been recorded for this entry: CC(C)C[C@@H](N)C(=O)Nc1ccc(-c2ccnc3[nH]ccc23)cc1
7.17

Okay, and Cc1cc2c(-c3ccc(NC(=O)[C@@H](N)[C@H](O)C(C)C)cc3C)ccnc2[nH]1 ?
7.64

----------
biological target: HIPK4 (Homo sapiens (Human))
READOUT KIND: IC50 (nM)
Numbers only here, please. The scale is nM.

Given the entry Cc1cc2c(-c3ccc(NC(=O)[C@H](N)CC(C)(C)C)cc3C)ccnc2[nH]1 , report its measured IC50.
2280

----------
target: Citron kinase (Homo sapiens (Human), UniProt O14578); test: Radiometric citron kinase assay (Eurofins Cat #16-040KP); assay type: biochemical; details: mean of at least two independent assays; read-out: Radiometric CitK IC50
# pIC50 per record follows
// returns pIC50 (minus log10 of molar concentration), number only

# annotated cases, reported pIC50 shown
Cc1cc2c(-c3ccc(NC(=O)[C@H](N)CC(C)(C)C)cn3)ccnc2[nH]1 [Compound F-145]: 7.59
CCc1cc(NC(=O)[C@H](N)C(C)(C)C)ccc1-c1ccnc2[nH]c(C)cc12 [Compound F-93]: 6.92
COc1cc(NC(=O)[C@H](N)CC(C)(C)C)ccc1-c1ccnc2[nH]ccc12 [Compound F-166]: 7.43
CC(C)C[C@@H](N)C(=O)Nc1ccc(-c2ccnc3[nH]ccc23)cc1 [Compound F-9]: 7.90
COc1cc(-c2ccnc3[nH]ccc23)ccc1NC(=O)[C@H](N)Cc1ccccc1 [Compound F-131]: 6.52

What is its pIC50 for Citron kinase (Homo sapiens (Human), UniProt O14578)? Entry: CC(C)(C)C[C@@H](N)C(=O)Nc1ccc(-c2ccnc3[nH]c(C4CC4)cc23)cc1 [Compound F-141]
8.00

Next up: Cc1c(-c2ccnc3[nH]ccc23)ccc(NC(=O)[C@H](N)CC(C)C)c1F [Compound F-72]
7.77

Could you do the same for CC(C)C[C@@H](N)C(=O)Nc1ccc(-c2ccnc3[nH]ccc23)cc1F [Compound F-70] , please?
7.43

----------
target: DRAK2 (Homo sapiens (Human))
Sequence (O94768 whole entry): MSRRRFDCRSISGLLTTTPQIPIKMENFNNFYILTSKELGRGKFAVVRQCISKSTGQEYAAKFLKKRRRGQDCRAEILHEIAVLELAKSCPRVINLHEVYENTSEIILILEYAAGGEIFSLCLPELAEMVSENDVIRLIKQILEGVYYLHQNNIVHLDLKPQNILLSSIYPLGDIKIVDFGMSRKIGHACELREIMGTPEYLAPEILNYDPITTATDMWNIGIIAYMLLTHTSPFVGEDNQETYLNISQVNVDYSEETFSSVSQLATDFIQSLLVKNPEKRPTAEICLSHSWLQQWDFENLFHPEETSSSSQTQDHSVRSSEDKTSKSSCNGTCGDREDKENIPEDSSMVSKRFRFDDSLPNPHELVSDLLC
READOUT KIND: IC50

Would you mind telling me what IC50 value was observed for Cc1cc2c(-c3ccc(NC(=O)[C@H](N)C(C)(C)O)cc3C)ccnc2[nH]1 ?
> 3 µM
